# protocolDetails: TIMS collisional cross section (CCS, N2) of the lipid ion; higher = larger ion cross section
# condition: sample type: Liver; ionization mode: positive; one isomer drawn
measuredParameter: TIMS collisional cross section (Å²)

* CCCCC/C=C\C/C=C\CCCCCCCCCC(=O)OC[C@@H](COC(=O)CCCCCCCCCCCCCCCCC)OC(=O)CCCCCCC/C=C\C/C=C\CCCCC [TG 18:0_18:2_20:2] (ion (formula + adduct): [C59H106O6+NH4] 1+) | 330.3
* CCCC/C=C\CCCCCCCC(=O)OC[C@H](COC(=O)CCCCCCC/C=C\CCCCCC)OC(=O)CCCCCCCCCCCCCC [TG 14:1_15:0_16:1] (ion (formula + adduct): [C48H88O6+NH4] 1+) | 300.3
* CC/C=C\C/C=C\C/C=C\C/C=C\C/C=C\C/C=C\CCC(=O)O[C@@H](CO)COC(=O)CCCCCCC/C=C\CCCCCCCC [DG 18:1_22:6_0:0] (ion (formula + adduct): [C43H70O5+NH4] 1+) | 269.9
* CC/C=C\C/C=C\C/C=C\C/C=C\C/C=C\C/C=C\CCC(=O)O[C@H](COC(=O)CCCCCCC/C=C\CCCCCC)COP(=O)([O-])OCC[N+](C)(C)C [PC 16:1_22:6@] (ion (formula + adduct): [C46H78NO8P+H] 1+) | 289
* CC/C=C\C/C=C\C/C=C\C/C=C\C/C=C\C/C=C\CCC(=O)OC[C@@H](COC(=O)CCCCCCCCCCCCCCC)OC(=O)CCCCCC/C=C\C/C=C\C/C=C\CCCCC [TG 16:0_20:3_22:6] (ion (formula + adduct): [C61H100O6+NH4] 1+) | 329.3
* CCCCC/C=C\C/C=C\CCCCCCCC(=O)O[C@H](CO/C=C\CCCCCCCCCCCCCCCC)COP(=O)(O)OCCN [PE P- 18:0@_18:2] (ion (formula + adduct): [C41H78NO7P+H] 1+) | 278
* CC/C=C\C/C=C\C/C=C\C/C=C\C/C=C\CCCC(=O)OC[C@@H](COC(=O)CCCCCCC/C=C\C/C=C\CCCCC)OC(=O)CCCCCCC/C=C\C/C=C\C/C=C\CC [TG 18:2_18:3_20:5] (ion (formula + adduct): [C59H94O6+NH4] 1+) | 319.5
* CCCCC/C=C\C/C=C\C/C=C\C/C=C\CCCC(=O)O[C@@H](CO)COC(=O)CCCCCCCCCCCCCCC [DG 16:0_20:4_0:0] (ion (formula + adduct): [C39H68O5+NH4] 1+) | 263.8
* CCCCC/C=C\C/C=C\CCCCCCCC(=O)OC[C@H](COC(=O)CCCCCCC/C=C\CCCCCCCCC)OC(=O)CCCCCCC/C=C\C/C=C\CCCCC [TG 18:2_18:2_19:1] (ion (formula + adduct): [C58H102O6+NH4] 1+) | 325.1
* CCCCCCCCCCCCCCCCCC(=O)OC[C@H](CO)OC(=O)CCCCCCCCCCCCCCC [DG 18:0_16:0_0:0] (ion (formula + adduct): [C37H72O5+NH4] 1+) | 265.6
* CCCCC/C=C\C/C=C\CCCCCCCCCCCC(=O)O[C@@H](CO)COC(=O)CCCCCCC/C=C\C/C=C\CCCCC [DG 18:2_22:2_0:0] (ion (formula + adduct): [C43H76O5+NH4] 1+) | 272.5
* CCCCC/C=C\C/C=C\C/C=C\C/C=C\CCCCCC(=O)O[C@H](CO/C=C\CCCCCCCCCCCCCCCC)COP(=O)([O-])OCC[N+](C)(C)C [PC P- 18:0@_22:4] (ion (formula + adduct): [C48H88NO7P+H] 1+) | 300.4
* CCCCC/C=C\C/C=C\C/C=C\CCCCC(=O)OC[C@@H](COC(=O)CCCCCCCCCCCCCC)OC(=O)CCCCCCC/C=C\C/C=C\CCCCC [TG 15:0_18:2_18:3] (ion (formula + adduct): [C54H94O6+NH4] 1+) | 312.7
* CCCCC/C=C\C/C=C\C/C=C\C/C=C\CCCC(=O)O[C@H](CO/C=C\CCCCCCCCCCCCCCCCCC)COP(=O)(O)OCCN [PE P- 20:0@_20:4] (ion (formula + adduct): [C45H82NO7P+H] 1+) | 288.7
* CCCCCCCC/C=C\CCCCCCCC(=O)O[C@@H](CO)COC(=O)CCCCCCCCCCCCCCCC [DG 17:0_18:1_0:0] (ion (formula + adduct): [C38H72O5+NH4] 1+) | 266
* CCCCCCCC/C=C\CCCCCCCC(=O)O[C@@H](CO)COC(=O)CCCCCCCCCCCCCCCCC [DG 18:0_18:1_0:0] (ion (formula + adduct): [C39H74O5+NH4] 1+) | 269.6
* CCCCC/C=C\C/C=C\CCCCCCCC(=O)OC[C@@H](COC(=O)CCCCCCC/C=C\CCCCCCC)OC(=O)CCCCCCC/C=C\C/C=C\CCCCC [TG 17:1_18:2_18:2] (ion (formula + adduct): [C56H98O6+NH4] 1+) | 317.5
* CCCCC/C=C\C/C=C\C/C=C\C/C=C\CCCC(=O)O[C@H](COCCCCCCCCCCCCCCCCCC)COP(=O)(O)OCCN [PE O- 18:0@_20:4] (ion (formula + adduct): [C43H80NO7P+H] 1+) | 284

====

# protocolDetails: TIMS collisional cross section (CCS, N2) of the lipid ion; higher = larger ion cross section
# condition: sample type: plasma; ionization mode: positive; one isomer drawn
measuredParameter: TIMS collisional cross section (Å²)

- CCCCC/C=C\C/C=C\C/C=C\C/C=C\CCCC(=O)O[C@H](CO)COP(=O)(O)OCCN [LPE 20:4] (ion (formula + adduct): [C25H44NO7P+H] 1+): 214.45
- CCCCCCCCCCCCCCCC(=O)OC[C@@H](COC(=O)CCCCCCCCCCCCC)OC(=O)CCCCCCCCCCCCCCC [TG 14:0_16:0_16:0] (ion (formula + adduct): [C49H94O6+NH4] 1+): 308.1
- CCCCC/C=C\C[C@H](O)/C=C/C=C\C/C=C\CCCC(=O)O[C@H](COC(=O)CCCCCCCCCCCCCCCCC)COP(=O)([O-])OCC[N+](C)(C)C [Oxidized PC 18:0@_20:4] (ion (formula + adduct): [C46H84NO9P+H] 1+): 297.15
- CCCCC/C=C\C/C=C\CCCCCCCC(=O)O[C@H](COC(=O)CCCCCCCCCCCCCC)COP(=O)([O-])OCC[N+](C)(C)C [PC 15:0@_18:2] (ion (formula + adduct): [C41H78NO8P+H] 1+): 280.9
- CCCCC/C=C\C/C=C\C/C=C\C/C=C\CCCC(=O)OC[C@@H](COC(=O)CCCCCCCCCCCCCCC)OC(=O)CCCCCCC/C=C\C/C=C\CCCCC [TG 16:0_18:2_20:4] (ion (formula + adduct): [C57H98O6+NH4] 1+): 321.2
- CCCCC/C=C\CCCCCCCC(=O)OC[C@H](COC(=O)CCCCCCC/C=C\CCCCCC)OC(=O)CCCCCCCCCCCCCCC [TG 15:1_16:0_16:1] (ion (formula + adduct): [C50H92O6+NH4] 1+): 307.1
- CCCCC/C=C\C/C=C\CCCCCCCC(=O)O[C@H](COC(=O)CCCCCCC/C=C\CCCCCCCC)COP(=O)(O)OCCN [PE 18:1_18:2@] (ion (formula + adduct): [C41H76NO8P+H] 1+): 275.8
- CCCCC/C=C\C/C=C\C/C=C\CCCCCCC(=O)OC[C@@H](O)COP(=O)([O-])OCC[N+](C)(C)C [LPC 20:3_0:0] (ion (formula + adduct): [C28H52NO7P+H] 1+): 232.43
- CCCCCCCCCCCCC/C=C/[C@@H](O)[C@H](COP(=O)([O-])OCC[N+](C)(C)C)NC(=O)CCCCCCCCCCCCCCCCCCCCC [SM d18:1_22:0@] (ion (formula + adduct): [C45H91N2O6P+H] 1+): 301.9
- CCCCCCCC/C=C\CCCCCCCC(=O)O[C@@H](CO)COC(=O)CCCCCCCCCCCCC [DG 14:0_18:1_0:0] (ion (formula + adduct): [C35H66O5+NH4] 1+): 255.9
- CCC/C=C\CCCCCCCC/C=C/[C@@H](O)[C@H](COP(=O)([O-])OCC[N+](C)(C)C)NC(=O)CCCCCCCCCCCCCCC [SM d18:2_16:0@] (ion (formula + adduct): [C39H77N2O6P+H] 1+): 281.3
- CC(C)C(=O)C[C@](C)(O)[C@H]1CC[C@H]2[C@@H]3C[C@H](O)[C@H]4C[C@@H](O)CC[C@]4(C)C3=CC[C@@]21C [24-northornasterol A] (ion (formula + adduct): [C26H42O4+H] 1+): 207.8
- CCC/C=C\C/C=C\CCCCCCCCCC(=O)O[C@H](COC(=O)CCCCCCCCCCCCC)COP(=O)([O-])OCC[N+](C)(C)C [PC 14:0_18:2] (ion (formula + adduct): [C40H76NO8P+H] 1+): 278.7
- CCCCCCCCCCCCC/C=C/C=C/C(=O)OC[C@H](COP(=O)([O-])OCC[N+](C)(C)C)OC(=O)/C=C/C=C/CCCCCCCCCCCCC [PC 18:2_18:2] (ion (formula + adduct): [C44H80NO8P+H] 1+): 286.9
- CCCCCC/C=C/CCCCCCCC(=O)OC[C@@H](O)COP(=O)([O-])OCC[N+](C)(C)C [LPC 16:1] (ion (formula + adduct): [C24H48NO7P+H] 1+): 225.13
- CCCCCCCC/C=C\CCCCCCCCCCCC(=O)N[C@@H](COP(=O)([O-])OCC[N+](C)(C)C)[C@H](O)/C=C/CCCCCCCCCCC [SM d16:1_22:1@] (ion (formula + adduct): [C43H85N2O6P+H] 1+): 294.45
- CCCCCC/C=C\CCCCCCCC(=O)OC[C@@H](COC(=O)CCCCCCCCCCCCC)OC(=O)CCCCCCCCCCCCCC [TG 14:0_15:0_16:1] (ion (formula + adduct): [C48H90O6+NH4] 1+): 302.85
- CCCCC/C=C\C/C=C\CCCCCCCC(=O)O[C@H](COC(=O)CCCCCCCCCCCCCCC)COP(=O)(O)OCCN [PE 16:0_18:2] (ion (formula + adduct): [C39H74NO8P+H] 1+): 273
